Target: T1, His-tagged CEACAM1 (human, UniProt P13688 35-428)
T1 construct: 45 kDa SPR analyte; also called CEACAM1-HIS; CEACAM1 analyte
T1 sequence: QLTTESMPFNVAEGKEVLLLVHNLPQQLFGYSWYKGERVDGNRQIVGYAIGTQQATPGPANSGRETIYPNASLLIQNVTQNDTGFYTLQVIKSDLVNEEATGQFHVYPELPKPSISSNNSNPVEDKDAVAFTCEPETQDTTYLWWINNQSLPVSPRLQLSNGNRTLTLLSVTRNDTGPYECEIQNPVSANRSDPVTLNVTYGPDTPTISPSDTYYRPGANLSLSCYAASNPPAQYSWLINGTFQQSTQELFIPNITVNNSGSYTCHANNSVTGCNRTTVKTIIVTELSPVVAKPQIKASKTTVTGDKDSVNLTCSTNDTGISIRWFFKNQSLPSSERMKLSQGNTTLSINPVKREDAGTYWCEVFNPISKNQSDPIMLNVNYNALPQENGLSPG
Experiment: SPR single-cycle, supernatant IgG captured
measurement-kind: koff (s⁻¹)
Your answer is read as s⁻¹, so omit the unit and give the number.

Entry 8H3_9E5/CP08E05 (antibody, IgG4, V domains shown, IgG4 (S241P), kappa) VH: EVQLLESGGGLVQPGGSLRLSCAASGFIFSSHGMSWVRQAPGKGLEWVATISSGGTYTYYPDSVKGRFTISRDNSKNTLYLQMNSLKAEDTAMYYCARHGFDYFPYWFAHWGQGTLVTVSS VL: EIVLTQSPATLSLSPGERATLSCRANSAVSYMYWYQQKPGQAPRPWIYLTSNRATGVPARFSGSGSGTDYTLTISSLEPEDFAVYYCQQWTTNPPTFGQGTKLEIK ; koff = 0.025

Entry 9B3_9E5_8H3/CP08E05 (antibody, IgG4, V domains shown, IgG4 (S241P), kappa) VH: EVQLLESGGGLVQPGGSLRLSCAASGFTFNAHAISWVRQAPGKGLEWVATISSGGTYTYYPDSVKGRFTISRDNSKNTLYLQMNSLKAEDTAMYYCARHGFDYFPYWFAHWGQGTLVTVSS VL: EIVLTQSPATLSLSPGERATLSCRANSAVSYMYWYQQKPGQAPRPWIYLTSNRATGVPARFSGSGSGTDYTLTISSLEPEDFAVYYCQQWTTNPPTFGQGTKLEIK ; koff = 0.022

Entry 8H3_9B3/CP08E05 (antibody, IgG4, V domains shown, IgG4 (S241P), kappa) VH: EVQLLESGGGLVQPGGSLRLSCAASGFTFNAHAISWVRQAPGKGLEWVATISSGGTYTYYPDSVKGRFTISRDNSKNTLYLQMNSLKAEDTAMYYCARHDFDYFPYWFAHWGQGTLVTVSS VL: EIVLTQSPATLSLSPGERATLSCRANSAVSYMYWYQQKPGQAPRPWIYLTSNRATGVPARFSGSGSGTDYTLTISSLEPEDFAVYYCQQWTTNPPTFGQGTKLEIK ; koff = 0.0072

Entry 8H3_9B3/Vκ8 S29A (antibody, IgG4, V domains shown, IgG4 (S241P), kappa) VH: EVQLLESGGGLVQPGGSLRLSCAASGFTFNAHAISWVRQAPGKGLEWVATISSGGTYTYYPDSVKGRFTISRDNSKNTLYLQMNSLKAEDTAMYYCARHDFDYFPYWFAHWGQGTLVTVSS VL: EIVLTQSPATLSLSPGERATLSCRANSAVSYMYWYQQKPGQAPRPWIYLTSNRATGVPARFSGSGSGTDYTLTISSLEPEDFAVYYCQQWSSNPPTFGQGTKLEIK ; koff = 0.0069

Note: attention shifts to another entry.
Entry 9B3_9E5/CP08F05 (antibody, IgG4, V domains shown, IgG4 (S241P), kappa) VH: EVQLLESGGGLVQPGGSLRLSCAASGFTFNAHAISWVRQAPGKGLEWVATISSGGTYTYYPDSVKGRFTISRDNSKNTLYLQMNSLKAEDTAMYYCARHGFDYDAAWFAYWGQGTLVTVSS VL: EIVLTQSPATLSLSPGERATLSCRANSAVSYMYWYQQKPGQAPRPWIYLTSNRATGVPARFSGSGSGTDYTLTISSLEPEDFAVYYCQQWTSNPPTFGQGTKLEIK ; koff = 0.012

Recorded values, source patent US20250074980A1.
